Details: buffer; pH 7.4; 6.0 h; 150.0 µM

{"molecule": "O=C1CCCC2=C1C(c1ccncc1Br)N=C(Nc1nc3ccccc3o1)N2 (stereo not given)", "unitTag": "µg/mL", "relationQualifier": "<", "solubility kinetic": 1}
{"molecule": "CN(C)CCNC(=O)c1nc2nc(-c3ccccc3)c(-c3cccc(F)c3)cc2n1C", "unitTag": "µg/mL", "relationQualifier": "=", "solubility kinetic": 51.3}
{"molecule": "CCN(CC)C(=O)N1c2ccccc2C=Cc2ccccc21", "unitTag": "µg/mL", "relationQualifier": "=", "solubility kinetic": 15.9}
{"molecule": "CN(C)S(=O)(=O)c1cccc(NC(=O)c2ccc[nH]2)c1", "unitTag": "µg/mL", "relationQualifier": "=", "solubility kinetic": 13.3}
{"molecule": "O=C(O)c1cccc(-c2noc(-c3ccccc3F)n2)c1", "unitTag": "µg/mL", "relationQualifier": "=", "solubility kinetic": 7.02}
{"molecule": "O=C(Oc1ccc[nH]c1=O)c1cc([N+](=O)[O-])cc([N+](=O)[O-])c1", "unitTag": "µg/mL", "relationQualifier": ">", "solubility kinetic": 45}
{"molecule": "Nc1c(S(=O)(=O)c2cccs2)c2nc3ccccc3nc2n1Cc1ccccc1", "unitTag": "µg/mL", "relationQualifier": "<", "solubility kinetic": 1}
{"molecule": "COc1ccc(-n2nc3c(N4CCCC(C(=O)NCCc5ccc(C)cc5)C4)nnc(C)c3c2C)cc1 (stereo not given)", "unitTag": "µg/mL", "relationQualifier": "=", "solubility kinetic": 4.04}
{"molecule": "O=C(Nc1nc(-c2ccccc2)cs1)c1ccncc1NS(=O)(=O)c1ccc2ccccc2c1", "unitTag": "µg/mL", "relationQualifier": "<", "solubility kinetic": 1}
{"molecule": "CCOc1ccc(CCNC(=O)c2ccc(Oc3ccccc3)cc2)cc1OCC", "unitTag": "µg/mL", "relationQualifier": "<", "solubility kinetic": 1}

* * *

Conditions: buffer; pH 7.4; 6.0 h; 150.0 µM

{"molecule": "CCN(CC)C(=O)c1coc(COc2ccc3c(c2)C(c2cccc(F)c2)N(C(=O)C(C)C)CC3)n1 (stereo not given)", "solubility kinetic": "< 1 µg/mL"}
{"molecule": "COc1ccc(-c2nc3ncccc3[nH]2)cc1", "solubility kinetic": "> 67 µg/mL"}
{"molecule": "CN(C)C(=O)NC1CCC(CCN2CCN(c3cccc(Cl)c3Cl)CC2)CC1 (stereo not given)", "solubility kinetic": "34.8 µg/mL"}
{"molecule": "COc1ccc(C2=Nc3ccc(C)cc3C(c3ccccc3)N2CC(=O)NN)cc1 (stereo not given)", "solubility kinetic": "> 59 µg/mL"}
{"molecule": "N#Cc1ccc(-c2ccc(CNc3ccc(C4CCNCC4)cc3)o2)cc1", "solubility kinetic": "35.2 µg/mL"}
{"molecule": "COc1cc(-c2cc3c(nc2-c2ccccc2)nc(C(=O)NC2CCN(C)CC2)n3C)ccn1", "solubility kinetic": "> 67 µg/mL"}
{"molecule": "COc1ccc(OCc2ccc(-c3nc(C#N)c(NC(C)c4ccccc4)o3)o2)cc1 (stereo not given)", "solubility kinetic": "< 1 µg/mL"}
{"molecule": "CC(=O)Nc1cccc(-c2nc(-c3c(C)noc3C)cc3c2cc(-c2ccccc2)n3C)c1", "solubility kinetic": "< 1 µg/mL"}
{"molecule": "COc1ccc(-c2csc(N3CCC(C(N)=O)CC3)n2)cc1OC", "solubility kinetic": "17.5 µg/mL"}
{"molecule": "O=C(Nc1ccc(F)cc1F)c1cc(-c2ccc[nH]2)n[nH]1", "solubility kinetic": "> 29 µg/mL"}

Data credit: PubChem BioAssay AID1645848
